# Tgt: PfRH5 from Plasmodium falciparum strain RF7 (Plasmodium falciparum)
# Protocol notes: cell-based or functional assay
Attribute: Max growth inhibition (%)
Endpoint: Max growth inhibition (%)

>>> result_value("H1H29125P (antibody, V domains shown) VH: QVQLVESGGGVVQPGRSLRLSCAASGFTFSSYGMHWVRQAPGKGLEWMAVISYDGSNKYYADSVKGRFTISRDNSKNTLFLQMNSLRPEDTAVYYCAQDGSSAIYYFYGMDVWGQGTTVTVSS VL: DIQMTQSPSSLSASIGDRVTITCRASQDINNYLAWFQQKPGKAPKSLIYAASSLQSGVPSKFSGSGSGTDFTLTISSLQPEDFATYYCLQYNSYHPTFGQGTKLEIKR")
"21%"
>>> result_value("H1H29109P (antibody, V domains shown) VH: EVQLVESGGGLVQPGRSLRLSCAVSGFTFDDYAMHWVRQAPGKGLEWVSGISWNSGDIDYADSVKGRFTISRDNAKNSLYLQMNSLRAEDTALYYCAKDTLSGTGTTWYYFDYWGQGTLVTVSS VL: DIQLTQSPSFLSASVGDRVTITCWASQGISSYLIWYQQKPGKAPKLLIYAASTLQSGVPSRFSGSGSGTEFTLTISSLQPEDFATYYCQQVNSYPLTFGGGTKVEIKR")
"8.24%"
>>> result_value("H1H29138P (antibody, V domains shown) VH: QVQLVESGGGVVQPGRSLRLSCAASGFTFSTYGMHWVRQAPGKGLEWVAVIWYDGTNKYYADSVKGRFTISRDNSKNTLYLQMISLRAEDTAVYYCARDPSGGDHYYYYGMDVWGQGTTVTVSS VL: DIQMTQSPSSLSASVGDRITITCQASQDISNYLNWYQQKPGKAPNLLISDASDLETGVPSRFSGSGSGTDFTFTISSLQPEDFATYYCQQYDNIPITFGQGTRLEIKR")
"51.4%"
